The reported measurements were obtained from PubChem BioAssay (NCI).

System: BT-549 breast
Assay: NCI-60 one-dose screen, 48 h (100 = growth as untreated, 0 = no growth, -100 = all killed)
Conditions: 10 µM unless noted
Compounds without any hit were thinned out: in the full panel of roughly 83,000, 20% have a hit.
The threshold is inclusive: growth of exactly 40% counts as YES; values below receive NO.

{"columns": ["Compound", "Category"],
 "data": [
  ["C=CC(=O)N[C@@H](/C=C/C(=O)OCC)Cc1ccc(-c2cc(Cl)cc(Cl)c2)cc1", "NO"],
  ["COC(=O)N[C@H]1CCc2c(Cl)c(OC)c(OC)c(OC)c2-c2ccc(SC)c(=O)cc21", "NO"],
  ["OCc1cnccc1NCCCCOc1ccc(Oc2ccccc2)cc1", "YES"],
  ["COc1cc(NC(C)CCCNC(=O)CCC(=O)NCCCNCCCCCCCCNCCCNC(=O)CCC(=O)NCCCC(C)Nc2cc(OC)cc3cccnc23)c2ncccc2c1 (stereo not given)", "YES"],
  ["Clc1ccc(-c2ccc(CNCC3CCNCC3)o2)c(-c2ccccc2)c1", "NO"],
  ["O=C(NCCNc1nccc(-c2c(-c3cccc(F)c3)nc3sccn23)n1)c1ccc(Cl)cc1", "YES"],
  ["COc1cc(/C=N/NC(=O)c2cnn3c2NC(c2ccccc2)C3)ccc1OCc1ccccc1 (stereo not given)", "NO"],
  ["COc1ccc(/C=C/c2nc(Nc3ccc(S(=O)(=O)Nc4nc(C)cc(C)n4)cc3)c3ccccc3n2)cc1", "YES"],
  ["CC1=C(C(=O)/C=C/c2ccc(N(C)C)cc2)C(c2ccccc2)NC(=S)N1 (stereo not given)", "YES"],
  ["COc1ccc2[nH]c(=O)c(CN3CCN(c4nccc(-c5ccc(Cl)cc5)n4)CC3)cc2c1", "YES"],
  ["Brc1ccc2[nH]cc(-c3cncn3CCc3ccccc3)c2c1", "YES"],
  ["COc1ccc(CCn2cncc2-c2c[nH]c3ccccc23)cc1", "YES"],
  ["COc1ccc(/C=C/C(=O)Nc2cc(/C=C\\c3cc(OC)c(OC)c(OC)c3)cc(OC)c2OC)cc1OC", "NO"],
  ["COc1cc(/C(C)=C(\\c2ccc(Cl)cc2)c2ccc(OCCN3CCCC3)cc2)ccc1F", "YES"]
]}
